Hey, just so you know, these numbers are from patent US9546157B2.

- Protocol description: Metabolic Stability (H = Human)
- Format: in vitro ADME
Value type: Metabolic Stability H

# Molecule, Metabolic Stability H
rows = [
    ("CCC(NC(=O)N(C)C1CCN(C)CC1)c1ccc(-c2cnccn2)c(Cl)c1Cl (centres unmarked)", "High H High M"),
    ("CC(NC(=O)N(C)C1CCN(C)C1)c1ccc(-c2ccsc2)c(Cl)c1Cl (centres unmarked)", "Medium"),
    ("C[C@@H](NC(=O)N(C)C1CCN(C)CC1)c1ccc(-c2cncc(F)n2)c(Cl)c1Cl", "Medium"),
    ("C#Cc1ccc(C(C)NC(=O)N(C)C2CCN(C)CC2)c(Cl)c1Cl (single isomer, unassigned) [Compound H0678]", "Medium H Medium M"),
    ("CC(NC(=O)N(C)C1CCN(C)CC1)c1ccc(C#Cc2nccs2)c(Cl)c1Cl (centres unmarked)", "High H High M"),
    ("CC(=O)c1ccc(-c2ccc(C(C)NC(=O)N(C)C3CCN(C)CC3)c(Cl)c2Cl)s1 (centres unmarked)", "Medium H Medium M"),
    ("CC(NC(=O)N(C)C1CCN(C)CC1)c1ccc(-c2ccsc2)c(Cl)c1Cl (centres unmarked)", "Medium"),
    ("CC(NC(=O)N(C)C1CCN(C)CC1)c1ccc(-c2cccc(C#N)c2)c(Cl)c1Cl (centres unmarked)", "Medium H Medium M"),
]

Q. Supply recorded Metabolic Stability H for CN1CCC(N(C)C(=O)NC(c2ccc(-c3cncc(F)n3)c(Cl)c2Cl)C(F)(F)F)CC1 (centres unmarked) here.
A. Medium

Q. Supply recorded Metabolic Stability H for CC(NC(=O)N(C)C1CCN(C)CC1C)c1ccc(-c2cccnc2)c(Cl)c1Cl (centres unmarked) here.
A. Medium H Medium M

Q. Supply recorded Metabolic Stability H for CC(NC(=O)N(C)C1CCN(C)CC1)c1ccc(-c2ccccc2)c(Cl)c1Cl (centres unmarked) here.
A. High H High M

Q. Supply recorded Metabolic Stability H for CC(NC(=O)N(C)C1CCN(C)CC1)c1ccc(C#Cc2cscn2)c(Cl)c1Cl (centres unmarked) here.
A. High H High M

Q. Supply recorded Metabolic Stability H for CC(NC(=O)N(O)C1CCN(C)CC1)c1ccc(C(F)F)c(Cl)c1Cl (centres unmarked) here.
A. High H High M

Q. Supply recorded Metabolic Stability H for CC(NC(=O)N(C)C1CCN(C)CC1)c1ccc(Cl)c(Cl)c1Cl (centres unmarked) here.
A. Medium

Q. Supply recorded Metabolic Stability H for CC(NC(=O)N(C)C1CCN(C)CC1)c1ccc(C#Cc2cccs2)c(Cl)c1Cl (centres unmarked) here.
A. High H High M

Q. Supply recorded Metabolic Stability H for CN1CCC(N(O)C(=O)NC(CC2CC2)c2ccc(-c3cnccn3)c(Cl)c2Cl)CC1 (centres unmarked) here.
A. High H High M

Q. Supply recorded Metabolic Stability H for CC(NC(=O)N(C)C1CCN(C)CC1)c1ccc(-c2cncc(-c3cncs3)c2)c(Cl)c1Cl (centres unmarked) here.
A. Low

Q. Supply recorded Metabolic Stability H for COc1ccc(-c2ccc(C(C)NC(=O)N(C)C3CCN(C)CC3)c(Cl)c2Cl)cc1 (centres unmarked) here.
A. Medium

Q. Supply recorded Metabolic Stability H for CC(NC(=O)N(C)C1CCN(C)CC1)c1ccc(CC#N)c(Cl)c1Cl (centres unmarked) here.
A. High H High M

Q. Supply recorded Metabolic Stability H for CC(NC(=O)N(C)C1CCN(C)CC1)c1ccc(/C=C/c2cccs2)c(Cl)c1Cl (centres unmarked) here.
A. High H High M

Q. Supply recorded Metabolic Stability H for CC(NC(=O)N(C)C1CCN(C)CC1)c1ccc(-c2cccnc2)c(Cl)c1Cl (centres unmarked) here.
A. Medium

Q. Supply recorded Metabolic Stability H for CC(NC(=O)N(C)C1CCN(C)CC1)c1ccc(-n2ccnn2)c(Cl)c1Cl (centres unmarked) here.
A. High H High M

----------
- Protocol description: Metabolic Stability (H = Human)
- Format: in vitro ADME
Value type: Metabolic Stability H

A selection of reference data follows.
# Compound, Metabolic Stability H
data = [
    ("CC(NC(=O)N(C)C1CCN(C)CC1)c1ccc(-c2cccs2)c2ccccc12 (stereo not shown)", "Medium H Medium M"),
    ("CC(NC(=O)N(C)C1CCN(C)CC1)c1ccc(-c2cccs2)c(Cl)c1Cl (single isomer, unassigned) [Compound H0563]", "Medium H Medium M"),
    ("CN1CCC(N(C)C(=O)NC(CC2CC2)c2ccc(-c3ccc(C(N)=O)s3)c(Cl)c2Cl)CC1 (stereo not shown)", "Medium H Medium M"),
    ("CCC(NC(=O)N(C)[C@@H]1CCN(C)CC1(C)C)c1ccc(-c2cnccn2)c(Cl)c1Cl (stereo partly shown)", "Medium H Medium M"),
]

Turning now to a further compound:
Q. Supply recorded Metabolic Stability H for CN1CCC(N(C)C(=O)NC(COCc2cccc(CO)c2)c2ccc(-c3ccsc3)c(Cl)c2Cl)CC1 (stereo not shown) here.
A. Poor

----------
- Assay target: GHSR1a (Homo sapiens)
- Sequence (Q92847 whole entry): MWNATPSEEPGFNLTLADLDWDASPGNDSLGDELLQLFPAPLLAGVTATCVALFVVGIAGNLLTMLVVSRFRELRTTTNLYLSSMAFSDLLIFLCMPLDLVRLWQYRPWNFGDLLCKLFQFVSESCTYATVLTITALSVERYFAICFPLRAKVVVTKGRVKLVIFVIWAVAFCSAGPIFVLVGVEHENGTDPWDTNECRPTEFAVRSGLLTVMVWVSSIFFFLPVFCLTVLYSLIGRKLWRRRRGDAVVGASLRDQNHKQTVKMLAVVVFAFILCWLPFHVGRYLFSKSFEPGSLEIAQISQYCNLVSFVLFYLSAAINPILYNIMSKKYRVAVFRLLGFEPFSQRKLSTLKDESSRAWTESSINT
- Protocol description: Calcium FLIPR assay, GHSR-1a antagonism (reduction of ghrelin response)
- Condition parameters: HEK293/GHSR1a cells, ghrelin 10 nM
pIC50: −log10 of the molar value.
Value type: pIC50

A selection of reference data follows.
# Molecule, Value type, Value observed
rows = [
    ("C#Cc1ccc(C(CC2CC2)NC(=O)N(OCC)C2CCN(C)CC2)c(Cl)c1Cl (centres unmarked)", "pIC50", 7.48),
    ("CC(NC(=O)N(C)C1CCN(C)CC1)c1ccc(C=O)c(Cl)c1Cl (centres unmarked)", "pIC50", 6.99),
    ("CC(NC(=O)N(C)C1CCN(C)CC1)c1ccc(-c2cncnc2)c(Cl)c1Cl (centres unmarked)", "pIC50", 7.39),
    ("CC[C@@H](NC(=O)N(C)C1CCN(C)CC1)c1ccc(-c2cnccn2)c(Cl)c1Cl (single isomer, unassigned)", "pIC50", 5.66),
    ("Cc1nccnc1-c1ccc(C(C)NC(=O)N(C)C2CCN(C)CC2)c(Cl)c1Cl (centres unmarked)", "pIC50", 5.92),
    ("COC(=O)c1ccc(C#Cc2ccc(C(C)NC(=O)N(C)C3CCN(C)CC3)c(Cl)c2Cl)s1 (centres unmarked)", "pIC50", 6.37),
    ("CC(NC(=O)N(C)C1CCN(C)CC1)c1ccc(C2CC2)c(Cl)c1Cl (centres unmarked)", "pIC50", 7.28),
    ("CCC(NC(=O)N(CC)C1CCN(C)CC1)c1ccc(-c2cnccn2)c(Cl)c1Cl (centres unmarked)", "pIC50", 8.15),
    ("CCN(C(=O)N[C@@H](C)c1ccc(-c2cnccn2)c(Cl)c1Cl)C1CCN(C)CC1", "pIC50", 8.22),
    ("CC(NC(=O)N(C)C1CCN(C)CC1)c1ccc(-c2cccc(N)c2)c2ccccc12 (centres unmarked)", "pIC50", 7.96),
]

[I] CC(NC(=O)N(C)C1CCN(C)CC1)c1ccc(-c2cncc(-c3cnn(C)c3)c2)c(Cl)c1Cl (centres unmarked)
[II] CN1CCC(N(C)C(=O)NC(CC2CC2)c2ccc(-c3cccnc3)c(Cl)c2Cl)CC1 (centres unmarked)
[III] CC(NC(=O)N(C)C1CCOCC1)c1ccc(-c2cncnc2)c(Cl)c1Cl (centres unmarked)
[IV] CC(NC(=O)N(C)C1CCN(C)CC1)c1ccc(-c2cnc(F)nc2)c(Cl)c1Cl (centres unmarked)
Q. Place the items in sequence of falling pIC50. State the ranking by listing the labels in the requested order.
A. II, I, IV, III
(II: 8.10, I: 6.26, IV: 5.89, III: 5.38)

----------
- Protocol description: Metabolic Stability (M = Mouse)
- Type: in vitro ADME
Value type: Metabolic Stability M

# Compound, Metabolic Stability M
records = [
    ("Cc1ccc(-c2ccc(C(C)NC(=O)N(C)C3CCN(C)CC3)c(Cl)c2Cl)o1 (stereo not shown) [Compound H0665]", "Medium"),
    ("CN1CCC(N(C)C(=O)N[C@@H](c2ccc(-c3cnccn3)c(Cl)c2Cl)C(F)(F)F)CC1 [Compound H0899]", "High"),
    ("C#Cc1ccc(C(C)NC(=O)N(C)C2CCN(C)CC2)c(Cl)c1Cl (single isomer, unassigned) [Compound H0678]", "Medium H Medium M"),
    ("CC(NC(=O)N(C)C1CCN(C)CC1)c1ccc(-c2cccnc2)c(Cl)c1Cl (stereo not shown) [Compound H0496]", "High"),
    ("CC(NC(=O)N(C)[C@@H]1CCN(C)CC1(C)C)c1ccc(-c2cnccn2)c(Cl)c1Cl (stereo partly shown) [Compound H0824]", "Medium"),
]

Turning now to a further compound:
Q. Supply recorded Metabolic Stability M for COc1ccc(-c2ccc(C(C)NC(=O)N(C)C3CCN(C)CC3)c(Cl)c2Cl)cn1 (stereo not shown) [Compound H0511] here.
A. Medium H Medium M

----------
- Protocol description: Metabolic Stability (M = Mouse)
- Type: in vitro ADME
Value type: Metabolic Stability M

A selection of reference data follows.
# Compound, Metabolic Stability M
data = [
    ("CN1CCC(N(C)C(=O)N[C@H](c2ccc(-c3cnccn3)c(Cl)c2Cl)C(F)(F)F)CC1", "High"),
    ("CC(NC(=O)N(O)C1CCN(C)CC1)c1ccc(-c2cncc(C#N)c2)c(Cl)c1Cl (centres unmarked)", "High H High M"),
    ("CC(NC(=O)N(C)C1CCN(C)CC1)c1ccc(C#Cc2nccs2)c(Cl)c1Cl (centres unmarked)", "High H High M"),
    ("COc1ncc(-c2ccc(C(C)NC(=O)N(C)C3CCN(C)CC3)c(Cl)c2Cl)cn1 (centres unmarked)", "High H High M"),
]

Q. Supply recorded Metabolic Stability M for CN1CCC(N(C)C(=O)NC(c2ccc(-c3cnccn3)c(Cl)c2Cl)C(F)(F)F)CC1 (centres unmarked) here.
A. High
